# SYSTEM: Receptor tyrosine-protein kinase erbB-2 (Homo sapiens, UniProt P04626)
# Sequence (P04626 whole entry): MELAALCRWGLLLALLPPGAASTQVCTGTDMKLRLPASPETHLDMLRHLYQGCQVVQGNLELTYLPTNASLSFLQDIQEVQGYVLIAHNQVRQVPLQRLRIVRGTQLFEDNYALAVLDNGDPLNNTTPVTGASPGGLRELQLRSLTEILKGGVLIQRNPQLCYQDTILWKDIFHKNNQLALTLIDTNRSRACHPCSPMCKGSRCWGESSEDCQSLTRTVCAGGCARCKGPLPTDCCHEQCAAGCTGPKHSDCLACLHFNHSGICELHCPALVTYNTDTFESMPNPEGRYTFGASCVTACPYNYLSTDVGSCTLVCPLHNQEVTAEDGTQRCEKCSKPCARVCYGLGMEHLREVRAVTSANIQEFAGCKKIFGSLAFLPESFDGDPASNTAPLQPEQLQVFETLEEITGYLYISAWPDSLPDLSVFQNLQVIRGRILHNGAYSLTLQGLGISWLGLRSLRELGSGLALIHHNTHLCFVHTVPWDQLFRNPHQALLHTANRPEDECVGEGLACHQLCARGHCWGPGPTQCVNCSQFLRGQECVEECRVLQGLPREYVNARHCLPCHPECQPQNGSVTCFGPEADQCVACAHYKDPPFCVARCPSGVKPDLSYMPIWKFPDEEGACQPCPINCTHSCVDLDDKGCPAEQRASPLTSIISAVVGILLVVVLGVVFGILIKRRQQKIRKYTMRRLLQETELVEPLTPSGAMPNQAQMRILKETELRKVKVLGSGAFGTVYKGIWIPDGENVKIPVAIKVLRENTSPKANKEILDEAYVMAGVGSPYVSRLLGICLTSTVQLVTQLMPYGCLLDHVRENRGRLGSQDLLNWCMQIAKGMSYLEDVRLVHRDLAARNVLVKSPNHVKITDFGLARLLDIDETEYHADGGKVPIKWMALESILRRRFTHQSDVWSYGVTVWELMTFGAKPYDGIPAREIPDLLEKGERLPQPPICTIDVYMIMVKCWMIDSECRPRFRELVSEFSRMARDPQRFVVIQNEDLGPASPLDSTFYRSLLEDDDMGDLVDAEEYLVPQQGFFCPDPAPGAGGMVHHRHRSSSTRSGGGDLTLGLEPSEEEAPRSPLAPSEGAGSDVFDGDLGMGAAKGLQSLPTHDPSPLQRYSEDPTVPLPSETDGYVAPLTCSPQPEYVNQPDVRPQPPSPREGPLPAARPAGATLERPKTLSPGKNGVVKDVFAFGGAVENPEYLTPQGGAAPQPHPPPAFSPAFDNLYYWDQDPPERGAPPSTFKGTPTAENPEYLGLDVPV
READOUT KIND: IC50 (nM)

STRUCTURE SMILES	SYSTEM	IC50 [nM]
C=CC(=O)Nc1cc2c(Nc3cccc(Cl)c3F)ncnc2cc1OCc1cn(CCCC(=O)NO)nn1	Receptor tyrosine-protein kinase erbB-2 (Homo sapiens, UniProt P04626)	8

[1] C=CC(=O)Nc1cc2c(Nc3ccc(OCc4cccc(F)c4)c(Cl)c3)ncnc2cc1OCc1cn(CCC(=O)NO)nn1
[2] C=CC(=O)Nc1cc2c(Nc3ccc(F)c(Cl)c3)ncnc2cc1OCc1cn(CCCCC(=O)NO)nn1
Between the two listed entries 1 and 2 , which has its IC50 at the higher number? Lab log: write the label of the selected item as the result.
2
